Could you please report measured IC50 for the items listed next?
Target: human SPR (Homo sapiens (Human), UniProt P35270)
Sequence (P35270 whole entry): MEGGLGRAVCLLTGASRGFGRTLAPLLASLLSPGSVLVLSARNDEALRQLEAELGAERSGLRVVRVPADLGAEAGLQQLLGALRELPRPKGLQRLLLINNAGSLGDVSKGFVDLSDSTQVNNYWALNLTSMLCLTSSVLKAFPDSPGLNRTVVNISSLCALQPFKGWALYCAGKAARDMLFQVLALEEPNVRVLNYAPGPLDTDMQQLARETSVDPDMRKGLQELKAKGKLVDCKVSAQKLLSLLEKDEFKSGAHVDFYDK
Experiment: Evaluation Example 2: Measurement of human SPR inhibitory activity (seven concentrations, sepiapterin absorbance at 420 nm)
Format: biochemical
Details: sepiapterin absorbance, Table 41, read-out: concentration at 50% inhibition of human SPR (IC50)
Answer format: number, then unit.

I need IC50 for every entry listed below, if you could help.
1. CC(C)Cn1c(=O)c(C(=O)NC2CC2)c(O)n2ncc(/C=C/C(=O)N3CCc4cc(F)ccc43)c12 [Synthesis Example 731]
2. Cc1nn2c(O)c(C(=O)NC3CC3)c(=O)n(CC(C)C)c2c1/C=C/C(=O)N1CCOc2ccccc21 [Synthesis Example 696]
3. CC(C)Cn1c(=O)c(C(=O)NC2CC2)c(O)n2ncc(/C=C/C(=O)N3CCOc4ccccc43)c12 [Synthesis Example 739]
4. CC(C)Cn1c(=O)c(C(=O)NC2CC2)c(O)n2ncc(/C=C/C(=O)N3CCc4cncnc43)c12 [Synthesis Example 724]

[reply]
1. 2.89 nM
2. 1.71 nM
3. 1.54 nM
4. 1.03 nM

[ask] Could you tell me which IC50 is on file for CC(C)Cn1c(=O)c(C(=O)NC2CC2)c(O)n2ncc(/C=C/C(=O)N(C)Cc3ncccn3)c12 [Synthesis Example 711] ?
[reply] 1.2 nM

---

Could you please report measured pIC50 for the items listed next?
Target: human SPR (Homo sapiens (Human), UniProt P35270)
Experiment: Evaluation Example 2: Measurement of human SPR inhibitory activity (seven concentrations, sepiapterin absorbance at 420 nm)
Format: biochemical
Conditions: Evaluation Example 2, seven concentrations 0.14 nM to 100 nM, 240 minutes at room temperature, read-out: IC50
Where a name gives a salt, the structure may show the parent alone.
Give bare numbers, as −log10 of the molar value.

As a guide, the following entries are already answered.
CC(C)Cn1c(=O)c(C(=O)NC2CC2)c(O)n2ncc(/C=C/C(=O)N3[C@@H](C)COC[C@@H]3C)c12 [compound 457]    9.09
Cc1cnc(-c2cc3n(CC(C)(C)C)c(=O)c(C(=O)NC4CC4)c(O)n3n2)cn1 [Synthesis Example 303]    8.59
CC(C)(C)Cn1c(=O)c(C(=O)NC2CC2)c(O)n2nc3c(c12)CN(C1CC1)C(=O)N3 [Synthesis Example 408]    9.08

Please turn your attention to the following entry.
[ask] Record Nc1nn2c(O)c(C(=O)NC3CC3)c(=O)n(CC3CCOCC3)c2c1/C=C/C1CCOCC1 [Synthesis Example 443, hydrochloride] : what is its pIC50 with human SPR (Homo sapiens (Human), UniProt P35270)?
[reply] 9.19

---

Could you please report measured pIC50 for the items listed next?
Target: UniProtKB P35270
Test: Evaluation Example 2: Measurement of human SPR inhibitory activity (seven concentrations, sepiapterin absorbance at 420 nm)
Assay type: biochemical
Details: Evaluation Example 2, seven concentrations 0.14 nM to 100 nM, 240 minutes at room temperature, read-out: IC50
One number for each entry, as −log10 of the molar value.

As a guide, the following entries are already answered.
CC(C)Cn1c(=O)c(C(=O)NC2CC2)c(O)n2ncc(/C=C/C(=O)N3CCC[C@H]3C(C)C)c12    8.83
CC(C)Cn1c(=O)c(C(=O)NC2CC2)c(O)n2ncc(/C=C/C(=O)N(C)C(C)C)c12    9.10

I need pIC50 for every entry listed below, if you could help.
1. COC(C)(C)Cn1c(=O)c(C(=O)NC2CC2)c(O)n2nc(Nc3cnccn3)cc12 [Synthesis Example 321]
2. CC(C)(C)Cn1c(=O)c(C(=O)NC2CC2)c(O)n2nc(-c3cn[nH]c3)cc12 [Synthesis Example 286]
3. CC(C)Cn1c(=O)c(C(=O)NC2CC2)c(O)n2ncc(COc3cccnc3)c12 [Synthesis Example 259]
4. C[C@H]1COCCN1C(=O)/C=C/c1cnn2c(O)c(C(=O)NC3CC3)c(=O)n(CC3(C)CC3)c12 [Synthesis Example 369]

[reply]
1. 9.14
2. 8.81
3. 9.74
4. 9.24

[ask] Could you tell me which pIC50 is on file for CC1(Cn2c(=O)c(C(=O)NC3CC3)c(O)n3ncc(/C=C/C(=O)N4C[C@H]5C[C@@H]4CO5)c23)CC1 [Synthesis Example 373] ?
[reply] 9.13

---

Could you please report measured log10 IC50 for the items listed next?
Molecular target: human SPR (Homo sapiens (Human))
Assay: Evaluation Example 2: Measurement of human SPR inhibitory activity (seven concentrations, sepiapterin absorbance at 420 nm)
Format: biochemical
Details: Evaluation Example 2, seven concentrations 0.14 nM to 100 nM, 240 minutes at room temperature, read-out: IC50
In our notation, the value equals log10 of IC50 in nM.

CC(C)Cn1c(=O)c(C(=O)NC2CC2)c(O)n2nc(Nc3cnccn3)cc12 [Synthesis Example 23]    0.28
CC(C)(C)Cn1c(=O)c(C(=O)NC2CC2)c(O)n2nc(-c3cnccn3)cc12 [Synthesis Example 302]    0.43
CC(C)Cn1c(=O)c(C(=O)NC2CC2)c(O)n2ncc(C(=O)NCc3ccccc3F)c12 [Synthesis Example 233]    0.01
CC(C)Cn1c(=O)c(C(=O)NC2CC2)c(O)n2ncc(/C=C/C(=O)N3CC[C@@H](C#N)C3)c12 [compound 483]    -0.16

I need log10 IC50 for every entry listed below, if you could help.
1. CC(C)(C)Cn1c(=O)c(C(=O)NC2CC2)c(O)n2nc(-c3[nH]ncc3Cl)cc12 [Synthesis Example 305]
2. CC(C)Cn1c(=O)c(C(=O)NC2CC2)c(O)n2ncc(/C=C/C(=O)N3CC4C(C3)C4(F)F)c12 (centres unmarked) [compound 511]

[reply]
1: 0.35; 2: 0.03

---

Biological target: UniProt:P35270
Assay: Evaluation Example 2: Measurement of human SPR inhibitory activity (seven concentrations, sepiapterin absorbance at 420 nm)
Assay type: biochemical
Details: Evaluation Example 2, seven concentrations 0.14 nM to 100 nM, 240 minutes at room temperature, read-out: IC50
Where a name gives a salt, the structure may show the parent alone.
reported endpoint: IC50 (nM)
Give bare numbers, in nM.

As a guide, the following entries are already answered.
CC(C)Cn1c(=O)c(C(=O)NC2CC2)c(O)n2nc(N)c(/C=C/C(=O)N3CCOC[C@@H]3C)c12 [Synthesis Example 417, hydrochloride]    0.59
CC(C)Cn1c(=O)c(C(=O)NC2CC2)c(O)n2nc(C(N)=O)c(/C=C/C(=O)N3CCOCC3)c12    0.6
COC(C)(C)Cn1c(=O)c(C(=O)NC2CC2)c(O)n2nc(-c3cccnc3N)cc12 [Synthesis Example 271]    1.08

Please turn your attention to the following entry.
[ask] Could you tell me which IC50 is on file for Cc1nn2c(O)c(C(=O)NC3CC3)c(=O)n(CC(C)C)c2c1/C=C/C(=O)N(C)Cc1ccccn1 [Synthesis Example 638] ?
[reply] 1.05

---

Could you please report measured pIC50 for the items listed next?
Target: human SPR (Homo sapiens (Human), UniProt P35270)
Assay: Evaluation Example 2: Measurement of human SPR inhibitory activity (seven concentrations, sepiapterin absorbance at 420 nm)
Assay type: biochemical
Details: Evaluation Example 2, seven concentrations 0.14 nM to 100 nM, 240 minutes at room temperature, read-out: IC50
Where a name gives a salt, the structure may show the parent alone.
Numbers only, as −log10 of the molar value.

As a guide, the following entries are already answered.
CC(C)Cn1c(=O)c(C(=O)NC2CC2)c(O)n2nc3c(c12)CCC(=O)N3 [Synthesis Example 404]    9.20
CC[C@H]1CCCN1C(=O)/C=C/c1cnn2c(O)c(C(=O)NC3CC3)c(=O)n(CC(C)C)c12    8.92
Cc1nn2c(O)c(C(=O)NC3CC3)c(=O)n(CC3CCOCC3)c2c1/C=C/C(=O)N1CCOCC1    9.09
Nc1nn2c(O)c(C(=O)NC3CC3)c(=O)n(CC3CC3)c2c1/C=C/C(=O)N1CCOCC1 [Synthesis Example 419, hydrochloride]    9.08
CC(C)Cn1c(=O)c(C(=O)NC2CC2)c(O)n2ncc(/C=C/C(=O)N3CCOCC34CC4)c12    9.09

I need pIC50 for every entry listed below, if you could help.
1. CC(C)Cn1c(=O)c(C(=O)NC2CC2)c(O)n2ncc(/C=C/C3=NCC(C)(C)O3)c12 [Synthesis Example 266]
2. CC(C)Cn1c(=O)c(C(=O)NC2CC2)c(O)n2ncc(/C=C/C(=O)N3CCC[C@H](CO)C3)c12
3. CC[C@@H]1CCCN1C(=O)/C=C/c1cnn2c(O)c(C(=O)NC3CC3)c(=O)n(CC(C)C)c12
4. CC(C)Cn1c(=O)c(C(=O)NC2CC2)c(O)n2ncc(C(=O)NCC3CCOCC3)c12 [Synthesis Example 221]
5. CC(C)Cn1c(=O)c(C(=O)NC2CC2)c(O)n2ncc(/C=C/C3CCN(CC(F)(F)F)CC3)c12 [Synthesis Example 249]
6. CC(C)(C)Cn1c(=O)c(C(=O)NC2CC2)c(O)n2nc(-c3cc(F)cnc3N)cc12 [Synthesis Example 285]
7. CC(C)(C)Cn1c(=O)c(C(=O)NC2CC2)c(O)n2nc(-c3c[nH]nc3C(N)=O)cc12 [Synthesis Example 312]

[reply]
8.80
9.07
8.88
9.19
8.57
8.48
8.89
